Numbers sourced from patent US6096874A.

- Test: in vivo
- Design: species or system rat
- Particulars: rat, liver, iv; 30 min; read-out: Liver uptake

Compound | tissue uptake at 0.5 h, %ID/g
CCN(CC)CCOc1ccc(/C(=C(/CCC[18F])c2ccccc2)c2ccccc2)cc1 [[^18 F]FTX] | 6.36

###

- Test: in vivo
- Design: species or system rat
- Particulars: rat, tumor, iv; 30 min; read-out: Tumor uptake

Compound | tissue uptake at 0.5 h / %ID/g
CCN(CC)CCOc1ccc(/C(=C(/CCC[18F])c2ccccc2)c2ccccc2)cc1 [[^18 F]FTX] | 0.256

###

- Test: in vivo
- Set-up: species or system rat
- Particulars: rat, kidney, iv; 4 h; read-out: Kidney uptake

Compound | tissue uptake at 4 h
CCN(CC)CCOc1ccc(/C(=C(/CCC[18F])c2ccccc2)c2ccccc2)cc1 [[^18 F]FTX] | 0.652 %ID/g
